# Tested on: rhesus H3
# Assay details: GTPγS radioligand binding assay, inhibition of rhesus H3 constitutive functional activity in cell membranes
# Format: biochemical, rhesus monkey (Macacca Mulatta)
# Test parameters: Table 1; relative to basal level
Where a name gives a salt, the structure may show the parent alone.
Reported values of Inverse Agonism: % inhibition of Basal GTPγS binding in Rhesus H3 for individual entries
Please state the figure in %; there is no need to write the unit.

Cc1cccc(C(=O)Nc2ccc(N3CC[C@H](N4CCC[C@@H]4C)C3)cc2C)n1 [Example 86, trifluoroacetate]
−18

Request: Given the molecule Cc1cc(N2CC[C@H](N3CCC[C@@H]3C)C2)ccc1NC(=O)c1ccc2[nH]ccc2c1 [Example 52] , what is its reported Inverse Agonism: % inhibition of Basal GTPγS binding in Rhesus H3?
Result: −17

Request: Given the molecule Cc1cc(N2CCC(N3CCCC3C)C2)ccc1NC(=O)c1ccc(F)cc1 (stereo not shown) [Example 7] , what is its reported Inverse Agonism: % inhibition of Basal GTPγS binding in Rhesus H3?
Result: −31

Request: Given the molecule Cc1cc(N2CC[C@H](N3CCC[C@@H]3C)C2)ccc1NC(=O)c1ccc2ccoc2c1 [Example 73, trifluoroacetate] , what is its reported Inverse Agonism: % inhibition of Basal GTPγS binding in Rhesus H3?
Result: −15

---

# Target system: rhesus (Macacca Mulatta) H3 receptor (Macaca mulatta, UniProt Q865E1)
# Construct: pcDNA5/FRT/TO (Invitrogen) containing the rhesus monkey (Macacca Mulatta) 445 amino acid H3 receptor
# Sequence (Q865E1 1-445): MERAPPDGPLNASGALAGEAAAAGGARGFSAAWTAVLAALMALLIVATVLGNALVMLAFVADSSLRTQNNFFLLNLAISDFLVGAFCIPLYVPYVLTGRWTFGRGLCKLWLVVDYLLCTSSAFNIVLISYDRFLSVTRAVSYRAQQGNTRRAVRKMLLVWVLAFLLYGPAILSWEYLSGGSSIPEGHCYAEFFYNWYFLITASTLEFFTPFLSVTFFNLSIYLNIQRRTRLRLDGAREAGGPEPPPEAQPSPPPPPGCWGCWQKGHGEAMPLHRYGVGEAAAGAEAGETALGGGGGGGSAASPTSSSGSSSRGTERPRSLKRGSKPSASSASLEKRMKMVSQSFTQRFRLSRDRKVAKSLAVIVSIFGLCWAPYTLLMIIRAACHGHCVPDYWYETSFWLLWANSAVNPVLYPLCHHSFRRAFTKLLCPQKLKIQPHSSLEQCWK
# Assay details: Rhesus H3 radioligand binding assay ([3H]-Methylhistamine displacement, WGA SPA beads)
# Parameters: species or system rhesus monkey (Macacca Mulatta)
# Test parameters: Table 1; [3H]-Methylhistamine 2 nM, Cheng-Prusoff; read-out: Affinity: ki in Rhesus H3 membrane
Structures can show the parent of a compound that is named as a salt.
Reported values of pKi for individual entries
# log scale: pKi equals minus log10 of the concentration in mol/L

Cc1cccc(C(=O)Nc2ccc(N3CC[C@H](N4CCC[C@@H]4C)C3)cc2C)n1 [Example 86, trifluoroacetate]
8.85
Cc1cc(N2CCC(N3CCCC3C)C2)ccc1NC(=O)c1ccc(F)cc1 (stereo not shown)
8.69
Cc1cc(N2CC[C@H](N3CCC[C@@H]3C)C2)ccc1NC(=O)c1ccc2ccoc2c1 [Example 73, trifluoroacetate]
9.11

Request: Given the molecule "Cc1cc(N2CC[C@H](N3CCC[C@@H]3C)C2)ccc1NC(=O)c1ccc2[nH]ccc2c1" , what is its reported pKi?
Result: 9.11
